Attribution: the supplement of paper PMC10307832

system: NCI-H2126; assay: relative viability (nuclei count vs DMSO), 5 days (fraction); higher = more cells survive; details: first compound 0.000632 µM
Provide the reported relative viability of each item.
Answers are plain numbers.

{"compound": "CC(=O)O[C@@]12CO[C@@H]1C[C@H](O)[C@@]1(C)C(=O)[C@H](O)C3=C(C)[C@@H](OC(=O)[C@H](O)[C@@H](NC(=O)OC(C)(C)C)c4ccccc4)C[C@@](O)([C@@H](OC(=O)c4ccccc4)[C@H]21)C3(C)C [Docetaxel] + Nc1nc2[nH]cc(CCc3ccc(C(=O)N[C@@H](CCC(=O)O)C(=O)O)cc3)c2c(=O)[nH]1 [Pemetrexed] (partner 0.2 µM)", "relative viability": 0.661}

Please state, for each entry, its recorded relative viability.
1. CC(=O)O[C@@]12CO[C@@H]1C[C@H](O)[C@@]1(C)C(=O)[C@H](O)C3=C(C)[C@@H](OC(=O)[C@H](O)[C@@H](NC(=O)OC(C)(C)C)c4ccccc4)C[C@@](O)([C@@H](OC(=O)c4ccccc4)[C@H]21)C3(C)C [Docetaxel] + NC(=O)Nc1cc(-c2cccc(F)c2)sc1C(=O)N[C@H]1CCCNC1 [AZD7762] (partner 0.2 µM)
2. CC(=O)O[C@@]12CO[C@@H]1C[C@H](O)[C@@]1(C)C(=O)[C@H](O)C3=C(C)[C@@H](OC(=O)[C@H](O)[C@@H](NC(=O)OC(C)(C)C)c4ccccc4)C[C@@](O)([C@@H](OC(=O)c4ccccc4)[C@H]21)C3(C)C [Docetaxel] + CCNC(=O)c1noc(-c2cc(C(C)C)c(O)cc2O)c1-c1ccc(CN2CCOCC2)cc1 [Luminespib] (partner 0.01 µM)

[1, 0.739]

Please state, for each entry, its recorded relative viability.
1. CC(=O)O[C@@]12CO[C@@H]1C[C@H](O)[C@@]1(C)C(=O)[C@H](O)C3=C(C)[C@@H](OC(=O)[C@H](O)[C@@H](NC(=O)OC(C)(C)C)c4ccccc4)C[C@@](O)([C@@H](OC(=O)c4ccccc4)[C@H]21)C3(C)C [Docetaxel] + CS(=O)(=O)N1CCN(Cc2cc3nc(-c4cccc5[nH]ncc45)nc(N4CCOCC4)c3s2)CC1 [Pictilisib] (partner 1 µM)
2. CC(=O)O[C@@]12CO[C@@H]1C[C@H](O)[C@@]1(C)C(=O)[C@H](O)C3=C(C)[C@@H](OC(=O)[C@H](O)[C@@H](NC(=O)OC(C)(C)C)c4ccccc4)C[C@@](O)([C@@H](OC(=O)c4ccccc4)[C@H]21)C3(C)C [Docetaxel] + Cc1nc(Nc2ncc(C(=O)Nc3c(C)cccc3Cl)s2)cc(N2CCN(CCO)CC2)n1 [Dasatinib] (partner 0.075 µM)

0.541
0.573

====

system: LOU-NH91; experiment: relative viability (nuclei count vs DMSO), 5 days (fraction); higher = more cells survive; conditions: first compound 0.5 µM
measurement_kind: relative viability
Numbers only.

Here are 2 compounds together with their reported answers.
{"compound": "COc1cc2nccc(Oc3ccc(NC(=O)Nc4cc(C)on4)c(Cl)c3)c2cc1OC [Tivozanib] + O=C(CCCCCCC(=O)Nc1ccccc1)NO [Vorinostat] (partner 1 µM)", "measurement_target": "LOU-NH91", "relative viability": 0.761}
{"compound": "COc1cc2nccc(Oc3ccc(NC(=O)Nc4cc(C)on4)c(Cl)c3)c2cc1OC [Tivozanib] + CC1(C)CCC(c2ccc(Cl)cc2)=C(CN2CCN(c3ccc(C(=O)NS(=O)(=O)c4ccc(N[C@H](CCN5CCOCC5)CSc5ccccc5)c(S(=O)(=O)C(F)(F)F)c4)cc3)CC2)C1 [Navitoclax] (partner 0.5 µM)", "measurement_target": "LOU-NH91", "relative viability": 0.705}

Read the next record carefully.
Documented relative viability of COc1cc2nccc(Oc3ccc(NC(=O)Nc4cc(C)on4)c(Cl)c3)c2cc1OC [Tivozanib] + CC(C)C[C@H](NC(=O)[C@H](Cc1ccccc1)NC(=O)c1cnccn1)B(O)O [Bortezomib] (partner 0.002 µM) : 0.499

====

tested on: LOU-NH91; test: relative viability (nuclei count vs DMSO), 5 days (fraction); higher = more cells survive; details: first compound 0.253 µM
Provide the reported relative viability of each item.
Give bare numbers.

Here are 4 molecules together with their reported answers.
{"molecule": "O=c1[nH]c2ccccc2n1C1CCN(CCCC(c2ccc(F)cc2)c2ccc(F)cc2)CC1 [Pimozide] + CS(=O)(=O)CCNCc1ccc(-c2ccc3ncnc(Nc4ccc(OCc5cccc(F)c5)c(Cl)c4)c3c2)o1 [Lapatinib] (partner 2 µM)", "relative viability": 0.694}
{"molecule": "O=c1[nH]c2ccccc2n1C1CCN(CCCC(c2ccc(F)cc2)c2ccc(F)cc2)CC1 [Pimozide] + Nc1nc2[nH]cc(CCc3ccc(C(=O)N[C@@H](CCC(=O)O)C(=O)O)cc3)c2c(=O)[nH]1 [Pemetrexed] (partner 0.2 µM)", "relative viability": 0.474}
{"molecule": "O=c1[nH]c2ccccc2n1C1CCN(CCCC(c2ccc(F)cc2)c2ccc(F)cc2)CC1 [Pimozide] + O=C(c1cc(Cc2n[nH]c(=O)c3ccccc23)ccc1F)N1CCN(C(=O)C2CC2)CC1 [Olaparib] (partner 8 µM)", "relative viability": 0.911}
{"molecule": "O=c1[nH]c2ccccc2n1C1CCN(CCCC(c2ccc(F)cc2)c2ccc(F)cc2)CC1 [Pimozide] + N=C(N)NC(=N)NCCc1ccccc1 [Phenformin] (partner 250 µM)", "relative viability": 0.702}

Read the next record carefully.
Documented relative viability of Cc1cnc(-c2cnc(NCCNc3ccc(C#N)cn3)nc2-c2ccc(Cl)cc2Cl)[nH]1 + Nc1ncn([C@H]2C[C@H](O)[C@@H](CO)O2)c(=O)n1 [Decitabine] (partner 2 µM) : 0.799

====

system: NCI-H1651; experiment: relative viability (nuclei count vs DMSO), 5 days (fraction); higher = more cells survive; details: first compound 0.000632 µM
measurement_kind: relative viability
Give bare numbers.

Please state, for each entry, its recorded relative viability.
1. CC(=O)O[C@@]12CO[C@@H]1C[C@H](O)[C@@]1(C)C(=O)[C@H](O)C3=C(C)[C@@H](OC(=O)[C@H](O)[C@@H](NC(=O)OC(C)(C)C)c4ccccc4)C[C@@](O)([C@@H](OC(=O)c4ccccc4)[C@H]21)C3(C)C [Docetaxel] + CC(=O)Nc1cccc(-n2c(=O)n(C3CC3)c(=O)c3c(Nc4ccc(I)cc4F)n(C)c(=O)c(C)c32)c1 [Trametinib] (partner 0.02 µM)
2. CC(=O)O[C@@]12CO[C@@H]1C[C@H](O)[C@@]1(C)C(=O)[C@H](O)C3=C(C)[C@@H](OC(=O)[C@H](O)[C@@H](NC(=O)OC(C)(C)C)c4ccccc4)C[C@@](O)([C@@H](OC(=O)c4ccccc4)[C@H]21)C3(C)C [Docetaxel] + Cc1cc(Nc2cc(N3CCN(C)CC3)nc(Sc3ccc(NC(=O)C4CC4)cc3)n2)n[nH]1 [Tozasertib] (partner 0.1 µM)
3. CC(=O)O[C@@]12CO[C@@H]1C[C@H](O)[C@@]1(C)C(=O)[C@H](O)C3=C(C)[C@@H](OC(=O)[C@H](O)[C@@H](NC(=O)OC(C)(C)C)c4ccccc4)C[C@@](O)([C@@H](OC(=O)c4ccccc4)[C@H]21)C3(C)C [Docetaxel] + CS(=O)(=O)CCNCc1ccc(-c2ccc3ncnc(Nc4ccc(OCc5cccc(F)c5)c(Cl)c4)c3c2)o1 [Lapatinib] (partner 2 µM)

1: 0.83; 2: 0.717; 3: 0.496

====

tested on: NCI-H1755; assay: relative viability (nuclei count vs DMSO), 5 days (fraction); higher = more cells survive; conditions: first compound 0.08 µM
measurement_kind: relative viability
Give bare numbers.

{"compound": "O=c1[nH]c2ccccc2n1C1CCN(CCCC(c2ccc(F)cc2)c2ccc(F)cc2)CC1 [Pimozide] + C[C@]1(O)C[C@@H](c2nc(-c3ccc4ccc(-c5ccccc5)nc4c3)c3c(N)nccn32)C1 [Linsitinib] (partner 1 µM)", "recorded_measurement": 0.94}

Please state, for each entry, its recorded relative viability.
1. O=c1[nH]c2ccccc2n1C1CCN(CCCC(c2ccc(F)cc2)c2ccc(F)cc2)CC1 [Pimozide] + N=C(N)NC(=N)NCCc1ccccc1 [Phenformin] (partner 250 µM)
2. Cc1cnc(-c2cnc(NCCNc3ccc(C#N)cn3)nc2-c2ccc(Cl)cc2Cl)[nH]1 + NC(=O)Nc1cc(-c2cccc(F)c2)sc1C(=O)N[C@H]1CCCNC1 [AZD7762] (partner 0.2 µM)
3. Cc1cnc(-c2cnc(NCCNc3ccc(C#N)cn3)nc2-c2ccc(Cl)cc2Cl)[nH]1 + C[C@@H](Oc1cc(-c2cnn(C3CCNCC3)c2)cnc1N)c1c(Cl)ccc(F)c1Cl [Crizotinib] (partner 1 µM)
4. Cc1cnc(-c2cnc(NCCNc3ccc(C#N)cn3)nc2-c2ccc(Cl)cc2Cl)[nH]1 + CS(=O)(=O)CCNCc1ccc(-c2ccc3ncnc(Nc4ccc(OCc5cccc(F)c5)c(Cl)c4)c3c2)o1 [Lapatinib] (partner 2 µM)
5. Cc1cnc(-c2cnc(NCCNc3ccc(C#N)cn3)nc2-c2ccc(Cl)cc2Cl)[nH]1 + COc1cccc2cc(-c3nc([C@H]4CC[C@H](C(=O)O)CC4)n4ncnc(N)c34)[nH]c12 [OSI-027] (partner 0.5 µM)
6. O=c1[nH]c2ccccc2n1C1CCN(CCCC(c2ccc(F)cc2)c2ccc(F)cc2)CC1 [Pimozide] + CC1(C)CCC(c2ccc(Cl)cc2)=C(CN2CCN(c3ccc(C(=O)NS(=O)(=O)c4ccc(N[C@H](CCN5CCOCC5)CSc5ccccc5)c(S(=O)(=O)C(F)(F)F)c4)cc3)CC2)C1 [Navitoclax] (partner 0.5 µM)

1. 0.585
2. 0.459
3. 0.853
4. 1.04
5. 0.81
6. 0.963

Please state, for each entry, its recorded relative viability.
1. Cc1cnc(-c2cnc(NCCNc3ccc(C#N)cn3)nc2-c2ccc(Cl)cc2Cl)[nH]1 + N=C(N)NC(=N)NCCc1ccccc1 [Phenformin] (partner 250 µM)
2. Cc1cnc(-c2cnc(NCCNc3ccc(C#N)cn3)nc2-c2ccc(Cl)cc2Cl)[nH]1 + CC(=O)c1c(C)c2cnc(Nc3ccc(N4CCNCC4)cn3)nc2n(C2CCCC2)c1=O [Palbociclib] (partner 0.5 µM)

1. 0.633
2. 0.418
